- TEST_SYSTEM: human Vitamin D Receptor (VDR), VDR (gene 7421) (UniProt P11473)
- Sequence (P11473 whole entry, looked up): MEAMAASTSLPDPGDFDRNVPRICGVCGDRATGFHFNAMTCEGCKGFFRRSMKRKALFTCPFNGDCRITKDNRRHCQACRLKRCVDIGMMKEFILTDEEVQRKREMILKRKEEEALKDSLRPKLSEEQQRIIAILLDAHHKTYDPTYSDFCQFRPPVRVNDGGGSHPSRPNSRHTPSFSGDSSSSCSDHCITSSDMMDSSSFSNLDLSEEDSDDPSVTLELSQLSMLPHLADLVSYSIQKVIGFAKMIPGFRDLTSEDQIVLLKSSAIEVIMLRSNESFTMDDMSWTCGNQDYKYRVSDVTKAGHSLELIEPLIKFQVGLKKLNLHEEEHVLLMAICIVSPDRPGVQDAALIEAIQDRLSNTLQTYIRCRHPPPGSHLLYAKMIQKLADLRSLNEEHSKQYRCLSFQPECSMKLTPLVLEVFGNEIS
- TEST_PROTOCOL: ATG_VDR_TRANS: Attagene TRANS-FACTORIAL HepG2 Assay for human Vitamin D Receptor (VDR) (AID 2283022)
Results filed as inconclusive are left out. Calls of active or inactive are those of the source. How the source made its calls: active means hit-call score of the fitted dose curve at least 0.9, where 1 is the maximum; inconclusive means response in the unintended direction; inactive means score below 0.9.
Write down the outcome that applies. Available outcomes: 1 (yes) = active, 0 (no) = inactive

INSERT INTO results (compound, qualitative_label) VALUES
  ('O=C1c2cccc(O)c2C(=O)c2c(O)cc(CO)cc21', '0 (no)');

*Q* Outcome logged for CCCCC(CC)COC(=O)c1ccccc1O (centres undefined) in this assay:
*A* 0 (no)

*Q* Outcome logged for CN(C)c1ccc(C(=N)c2ccc(N(C)C)cc2)cc1 in this assay:
*A* 1 (yes)

*Q* Outcome logged for CCCCCC(C)O (centres undefined) in this assay:
*A* 0 (no)

*Q* Outcome logged for CO[Si](OC)(OC)c1ccccc1 in this assay:
*A* 0 (no)

*Q* Outcome logged for S=C(NC1CCCCC1)NC1CCCCC1 in this assay:
*A* 0 (no)

*Q* Outcome logged for CCCCCCCCc1ccc(Nc2ccc(CCCCCCCC)cc2)cc1 in this assay:
*A* 0 (no)
